Record form. Attribute: ALT. Fill in for each entry.
System: Wistar rats
TEST METHOD NOTES: Evaluation of subacute toxicity (14 days, intragastric)
Type: in vivo
EXPERIMENTAL CONDITIONS: 40 mg/kg intragastric once a day for 14 days; rat
Numbers only, in U/L.

[[record]]
molecule = "[2H]C([2H])([2H])Oc1cc2c(cc1OC([2H])([2H])[2H])[C@@H]1Cc3ccc(OC([2H])([2H])[2H])c(OC([2H])([2H])[2H])c3CN1CC2 [Formula I7]"
target_or_system = "Wistar rats"
property = "ALT"
measured = 84.5

[[record]]
molecule = "[2H]C([2H])([2H])Oc1cc2c(cc1OC)CCN1Cc3c(ccc(OC([2H])([2H])[2H])c3OC)C[C@@H]21 [Formula I6]"
target_or_system = "Wistar rats"
property = "ALT"
measured = 165.3


Attention now turns to another entry.
Q: What does the data say about its ALT? Entry: COc1cc2c(cc1OC)[C@@H]1Cc3ccc(OC)c(OC)c3CN1CC2 [THP, L-tetrahydropalmatine, reference compound]
Ans: 160.0

###

Tested on: blood pressure in rats
TEST METHOD NOTES: Effects on blood pressure in rats
Format: in vivo, SD rats
EXPERIMENTAL CONDITIONS: 40 mg/kg intragastric; time point 120
Record form. Attribute: Blood pressure. Fill in for each entry.
Give bare numbers, in mmHg.

[[record]]
molecule = "COc1cc2c(cc1OC)[C@@H]1Cc3ccc(OC)c(OC)c3CN1CC2 [THP, L-tetrahydropalmatine, reference compound]"
measured = 91.6


Please go through the list and note Blood pressure for each molecule.
1. [2H]C([2H])([2H])Oc1cc2c(cc1OC([2H])([2H])[2H])[C@@H]1Cc3ccc(OC([2H])([2H])[2H])c(OC([2H])([2H])[2H])c3CN1CC2
2. [2H]C([2H])([2H])Oc1ccc2c(c1OC)CN1CCc3cc(OC)c(OC)cc3[C@@H]1C2

Ans:
[95.3, 110.5]

###

System: blood pressure in rats
TEST METHOD NOTES: Effects on blood pressure in rats
Type: in vivo, SD rats
EXPERIMENTAL CONDITIONS: 40 mg/kg intragastric; time point 90
PROPERTY: Blood pressure (mmHg)
Give bare numbers, in mmHg.

Please review the following examples before continuing.
[[record]]
compound = "[2H]C([2H])([2H])Oc1cc2c(cc1OC)CCN1Cc3c(ccc(OC([2H])([2H])[2H])c3OC)C[C@@H]21"
target_or_system = "blood pressure in rats"
property = "Blood pressure"
u = "mmHg"
measured = 85.2

[[record]]
compound = "COc1cc2c(cc1OC)[C@@H]1Cc3ccc(OC)c(OC)c3CN1CC2 [THP, L-tetrahydropalmatine, reference compound]"
target_or_system = "blood pressure in rats"
property = "Blood pressure"
u = "mmHg"
measured = 79.00


Attention now turns to another entry.
Q: What does the data say about its Blood pressure? Entry: `[2H]C([2H])([2H])Oc1cc2c(cc1OC([2H])([2H])[2H])[C@@H]1Cc3ccc(OC([2H])([2H])[2H])c(OC([2H])([2H])[2H])c3CN1CC2`
Ans: 82.6
